Reference source for all entries: patent US20210277061A1

- measured-target: T1, AF9 YEATS domain, His-AF9 (1-138) (human, UniProt P42568 1-138)
- T1 construct: Expressed in E. coli; not shown: His tag
- T1 sequence (looked up): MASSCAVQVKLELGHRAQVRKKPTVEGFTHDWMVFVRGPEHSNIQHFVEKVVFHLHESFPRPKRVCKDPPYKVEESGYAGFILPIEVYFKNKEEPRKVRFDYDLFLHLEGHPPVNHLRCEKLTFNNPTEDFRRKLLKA
- assay-name: photo-cross-linking competition vs photoaffinity probe, in-gel fluorescence
No end group written: not given here.
Reported pIC50 values follow for various binders
API: returns pIC50 as number; meaning -log10 of concentration in mol/L.

{"binder": "KQTARK(2‑pyrimidinecarbonyl)STGG-NH2 (also called 4.6) [compound 6 (XL-06)]", "pIC50": 5.43}
{"binder": "KQTARKSTGG-NH2 (not fully specified (residue 6); also: Lys6 acylated with group R, structure drawing only, also called 4.10) [compound 10 (XL-10)]", "pIC50": 4.97}

// next entry
Supply measured pIC50 of KQTARKSTGG-NH2 (not fully specified (residue 6); also: Lys6 acylated with group R, structure drawing only, also called 4.15) [compound 15 (XL-15)] in your reply. 4.61
